Data provenance is the supplement of paper PMC10307832.

tested on: NCI-H2023; test: relative viability (nuclei count vs DMSO), 5 days (fraction); higher = more cells survive; conditions: first compound 0.3162 µM
Recorded metric: relative viability
Lab note: jot the number down without any unit.

# annotated cases, reported relative viability shown
Compound	relative viability
NC(=O)Nc1cc(-c2cccc(F)c2)sc1C(=O)N[C@H]1CCCNC1 [AZD7762] + C[C@]1(O)C[C@@H](c2nc(-c3ccc4ccc(-c5ccccc5)nc4c3)c3c(N)nccn32)C1 [Linsitinib] (partner 1 µM)	0.21
NC(=O)Nc1cc(-c2cccc(F)c2)sc1C(=O)N[C@H]1CCCNC1 [AZD7762] + CS(=O)(=O)CCNCc1ccc(-c2ccc3ncnc(Nc4ccc(OCc5cccc(F)c5)c(Cl)c4)c3c2)o1 [Lapatinib] (partner 2 µM)	0.198

Recorded relative viability for NC(=O)Nc1cc(-c2cccc(F)c2)sc1C(=O)N[C@H]1CCCNC1 [AZD7762] + C[C@@H](Oc1cc(-c2cnn(C3CCNCC3)c2)cnc1N)c1c(Cl)ccc(F)c1Cl [Crizotinib] (partner 1 µM) with NCI-H2023, please? 0.209

Form: Entry = NC(=O)Nc1cc(-c2cccc(F)c2)sc1C(=O)N[C@H]1CCCNC1 [AZD7762] + CC(=O)c1c(C)c2cnc(Nc3ccc(N4CCNCC4)cn3)nc2n(C2CCCC2)c1=O [Palbociclib] (partner 0.5 µM) | System = NCI-H2023 | relative viability = ____ 0.162

For the record NC(=O)Nc1cc(-c2cccc(F)c2)sc1C(=O)N[C@H]1CCCNC1 [AZD7762] + CS(=O)(=O)N1CCN(Cc2cc3nc(-c4cccc5[nH]ncc45)nc(N4CCOCC4)c3s2)CC1 [Pictilisib] (partner 1 µM) , what value of relative viability is listed for NCI-H2023? 0.11

---

system: NCI-H650; assay: relative viability (nuclei count vs DMSO), 5 days (fraction); higher = more cells survive; settings: first compound 0.01581 µM
List of relative viability values.

Molecule	Target entity	relative viability
CC1(C)CCC(c2ccc(Cl)cc2)=C(CN2CCN(c3ccc(C(=O)NS(=O)(=O)c4ccc(N[C@H](CCN5CCOCC5)CSc5ccccc5)c(S(=O)(=O)C(F)(F)F)c4)cc3)CC2)C1 [Navitoclax] + CS(=O)(=O)N1CCN(Cc2cc3nc(-c4cccc5[nH]ncc45)nc(N4CCOCC4)c3s2)CC1 [Pictilisib] (partner 1 µM)	NCI-H650	0.948
CC1(C)CCC(c2ccc(Cl)cc2)=C(CN2CCN(c3ccc(C(=O)NS(=O)(=O)c4ccc(N[C@H](CCN5CCOCC5)CSc5ccccc5)c(S(=O)(=O)C(F)(F)F)c4)cc3)CC2)C1 [Navitoclax] + CC(=O)Nc1cccc(-n2c(=O)n(C3CC3)c(=O)c3c(Nc4ccc(I)cc4F)n(C)c(=O)c(C)c32)c1 [Trametinib] (partner 0.02 µM)	NCI-H650	1.2
CC1(C)CCC(c2ccc(Cl)cc2)=C(CN2CCN(c3ccc(C(=O)NS(=O)(=O)c4ccc(N[C@H](CCN5CCOCC5)CSc5ccccc5)c(S(=O)(=O)C(F)(F)F)c4)cc3)CC2)C1 [Navitoclax] + C[C@]1(O)C[C@@H](c2nc(-c3ccc4ccc(-c5ccccc5)nc4c3)c3c(N)nccn32)C1 [Linsitinib] (partner 1 µM)	NCI-H650	0.817
CC1(C)CCC(c2ccc(Cl)cc2)=C(CN2CCN(c3ccc(C(=O)NS(=O)(=O)c4ccc(N[C@H](CCN5CCOCC5)CSc5ccccc5)c(S(=O)(=O)C(F)(F)F)c4)cc3)CC2)C1 [Navitoclax] + CCNC(=O)c1noc(-c2cc(C(C)C)c(O)cc2O)c1-c1ccc(CN2CCOCC2)cc1 [Luminespib] (partner 0.01 µM)	NCI-H650	0.862
CC1(C)CCC(c2ccc(Cl)cc2)=C(CN2CCN(c3ccc(C(=O)NS(=O)(=O)c4ccc(N[C@H](CCN5CCOCC5)CSc5ccccc5)c(S(=O)(=O)C(F)(F)F)c4)cc3)CC2)C1 [Navitoclax] + N=C(N)NC(=N)NCCc1ccccc1 [Phenformin] (partner 250 µM)	NCI-H650	0.473

Alright, here's another molecule for you.
# get_value(readout='relative viability', item= CC1(C)CCC(c2ccc(Cl)cc2)=C(CN2CCN(c3ccc(C(=O)NS(=O)(=O)c4ccc(N[C@H](CCN5CCOCC5)CSc5ccccc5)c(S(=O)(=O)C(F)(F)F)c4)cc3)CC2)C1 [Navitoclax] + Cc1nc(Nc2ncc(C(=O)Nc3c(C)cccc3Cl)s2)cc(N2CCN(CCO)CC2)n1 [Dasatinib] (partner 0.075 µM) ) 0.473
